Would you mind telling me the reported NanoBRET Fold Response of each entry?
molecular target: DRD5 (Homo sapiens); construct: purchased Promega (in-house HiBiT-GPCR construct library, NanoBRET); test: NanoBRET screen HiBiT-DRD5 in HEK293; type: binding; conditions: DRD5; tracer 1μM
Sequence (P21918 whole entry): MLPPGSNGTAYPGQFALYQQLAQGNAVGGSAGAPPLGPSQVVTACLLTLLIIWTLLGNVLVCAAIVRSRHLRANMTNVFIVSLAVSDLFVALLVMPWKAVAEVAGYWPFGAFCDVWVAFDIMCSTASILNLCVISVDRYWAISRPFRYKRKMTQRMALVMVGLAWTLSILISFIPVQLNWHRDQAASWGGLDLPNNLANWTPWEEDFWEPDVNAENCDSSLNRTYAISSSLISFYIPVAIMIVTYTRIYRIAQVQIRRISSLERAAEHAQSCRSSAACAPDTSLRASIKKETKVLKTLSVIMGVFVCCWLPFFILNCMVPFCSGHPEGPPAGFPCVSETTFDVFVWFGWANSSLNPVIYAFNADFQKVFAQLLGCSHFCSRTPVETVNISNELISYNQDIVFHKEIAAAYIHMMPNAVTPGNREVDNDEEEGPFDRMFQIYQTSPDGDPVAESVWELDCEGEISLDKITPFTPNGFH
Provide a numeric answer; units are not to be included.

Asked: Item `CCCn1c(=O)c2[nH]c(-c3ccc(OCC(=O)NCCNC(=O)CCOCCNC(=O)c4ccc(CNC(=O)CCc5ccc6n5[B-](F)(F)[N+]5=C(c7ccc[nH]7)C=CC5=C6)cc4)cc3)nc2n(CCC)c1=O` has what recorded NanoBRET Fold Response?
Given back: 1.00

Asked: Item `CC(C)N(CC[C@H](c1ccccc1)c1cc(CCNC(=O)c2ccc(CNC(=O)CCc3ccc4n3[B-](F)(F)[N+]3=C(c5ccc[nH]5)C=CC3=C4)cc2)ccc1O)C(C)C` has what recorded NanoBRET Fold Response?
Given back: 1.18

Asked: Item O=C(CCc1ccc2n1[B-](F)(F)[N+]1=C(c3ccc[nH]3)C=CC1=C2)NCc1ccc(C(=O)NCCOCCC(=O)N[C@@H]2CC[C@@]3(O)[C@H]4Cc5ccc(O)c6c5[C@@]3(CCN4CC3CC3)[C@H]2O6)cc1 [Naltrexone-3-NB590] has what recorded NanoBRET Fold Response?
Given back: 1.07

Asked: Item `COc1ccccc1N1CCN(CCCCN2C(=O)c3ccc(CNC(=O)CCOCCNC(=O)c4ccc(CNC(=O)CCc5ccc6n5[B-](F)(F)[N+]5=C(c7ccc[nH]7)C=CC5=C6)cc4)cc3C2=O)CC1` has what recorded NanoBRET Fold Response?
Given back: 1.42

Asked: Item `COc1ccccc1N1CCN(CCCCN2C(=O)c3ccc(CNC(=O)CCOCCOCCOCCOCCNC(=O)CCc4ccc5n4[B-](F)(F)[N+]4=C(c6ccc[nH]6)C=CC4=C5)cc3C2=O)CC1` has what recorded NanoBRET Fold Response?
Given back: 1.21

Asked: Item `O=C(CCc1ccc2n1[B-](F)(F)[N+]1=C(c3ccc[nH]3)C=CC1=C2)NCCOCCOCCNC(=O)OCCOCCN1CCN(C2=Nc3ccccc3Sc3ccccc32)CC1` has what recorded NanoBRET Fold Response?
Given back: 1.43

Asked: Item `CC(C)N(CC[C@H](c1ccccc1)c1cc(CCNC(=O)CCOCCOCCOCCOCCNC(=O)CCc2ccc3n2[B-](F)(F)[N+]2=C(c4ccc[nH]4)C=CC2=C3)ccc1O)C(C)C` has what recorded NanoBRET Fold Response?
Given back: 1.04

Asked: Item `N#CN=C(NCCCOc1cccc(CN2CCCCC2)c1)NCCNC(=O)CCOCCOCCOCCOCCNC(=O)CCc1ccc2n1[B-](F)(F)[N+]1=C(c3ccc[nH]3)C=CC1=C2` has what recorded NanoBRET Fold Response?
Given back: 1.01

Asked: Item `O=C(CCOCCOCCOCCOCCNC(=O)CCc1ccc2n1[B-](F)(F)[N+]1=C(c3ccc[nH]3)C=CC1=C2)NCCCN1CCN(C2=Nc3ccccc3Oc3ccc(Cl)cc32)CC1` has what recorded NanoBRET Fold Response?
Given back: 2.20

Asked: Item Cc1nc2n(c(=O)c1CCN1CCC(c3noc4cc(F)ccc34)CC1)CCCC2OC(=O)NCCOCCOCCOCCOCCNC(=O)CCc1ccc2n1[B-](F)(F)[N+]1=C(c3ccc[nH]3)C=CC1=C2 (centres unmarked) has what recorded NanoBRET Fold Response?
Given back: 2.44

Asked: Item `Cc1cc2c(s1)Nc1ccccc1N=C2N1CCN(CCCNC(=O)CCOCCOCCOCCOCCNC(=O)CCc2ccc3n2[B-](F)(F)[N+]2=C(c4ccc[nH]4)C=CC2=C3)CC1` has what recorded NanoBRET Fold Response?
Given back: 2.53
